experiment notes: Half life in dog at 2 mg/kg, iv
Format: ADME, organism-based, Canis lupus familiaris
Design: dose 2 mg/kg, route intravenous
particulars: in vivo
measured quantity: half-life (h)
Numbers only; they are read as h.

>>> reading("Cn1c(-c2ccccn2)c(C2CCCC2)c2ccc(C(=O)NC3(C(=O)Nc4ccc(/C=C/C(=O)O)cc4)CCC3)cc21")
4.3

Prompt: Form field: reported half-life of Cn1c(-c2cnccn2)c(C2CCCC2)c2ccc(C(=O)NC3(C(=O)Nc4ccc(/C=C/C(=O)O)cc4)CCC3)cc21
Completion: 1.6
